system: peritoneal mast cells of rat; assay: Histamine release from peritoneal mast cells induced by Compound 48/80 (non-allergic release); type: cell-based, Sprague-Dawley strain male rat; settings: Rattus norvegicus, Mast cell, 10 min, Experiment 1; 10⁻⁵ M; Compound 48/80 0.5 µg/ml; read-out: Inhibitory ratio (%) histamine release
Kindly supply the reported inhibition at 10 µM values for the records listed here.
Answer format: numeric, % implied, no suffix.

Entry `O=C(CSc1ccc2cc(O)c(O)cc2c1)Nc1ccccc1-c1nnn[nH]1` : reported inhibition at 10 µM = ?
28.1

Would you kindly repeat that for COc1ccc(/C=C/C(=O)Nc2ccccc2C(=O)O)cc1OC [Tranilast, reference compound] ?
24.4

Would you kindly repeat that for `O=C(CSc1ccc2cc(O)c(O)cc2c1)Nc1nnn[nH]1` ?
2.2

Would you kindly repeat that for `COC(=O)c1ccccc1NC(=O)CSc1ccc2cc(O)c(O)cc2c1` ?
-0.8

Would you kindly repeat that for `O=C(CSc1ccc2cc(O)c(O)cc2c1)Nc1ccccc1C(=O)O` ?
1.3

Would you kindly repeat that for `COC(=O)CSc1ccc2cc(O)c(O)cc2c1` ?
10.5

Would you kindly repeat that for `O=C(CSc1ccc2cc(O)c(O)cc2c1)NCCCCN1CCN(C(c2ccc(F)cc2)c2ccc(F)cc2)CC1` ?
5.9
